Target: Heat Shock Protein 90 (HSP90), endogenous, in human cell lines (human, UniProt P07900 2-732)
Assay: cell-based or functional assay
Overview of recorded clonogenic survival of UMSCC1 cells (Survival Fraction), peptide delivered with Chariot for various binders
Provide only the numeric value, understood in survival fraction.

> print(dat)
                          binder  reported
1  SVGNPHVC [Peptide 7 SVGNPHVC]      0.97
2      RLLGIC [Peptide 3 RLLGIC]      0.85

Task: Any idea what its clonogenic survival of UMSCC1 cells (Survival Fraction), peptide delivered with Chariot is? The binder is DEAYVMA [Peptide 1 DEAYVMA]
Output: 0.93
